Protocol text: Cytotoxicity assay (MTT), normal oral cells (mean)
Conditions: human, normal oral cells HGF, HPLF, HPC (mean of the three)
Friendly reminder: CC50 at 48 h below 100 µM is Met, at or above is Not met.

Below are worked cases with known answers.
[
  {
    "Compound": "COc1ccc(C2CC(c3ccc(O)cc3)=NN2c2ccc(S(N)(=O)=O)cc2)cc1 (stereo not shown)",
    "Label value": "Not met"
  },
  {
    "Compound": "NS(=O)(=O)c1ccc(N2N=C(c3ccc(O)cc3)CC2c2ccc(Br)cc2)cc1 (stereo not shown)",
    "Label value": "Met"
  },
  {
    "Compound": "NS(=O)(=O)c1ccc(N2N=C(c3ccc(O)cc3)CC2c2ccc([N+](=O)[O-])cc2)cc1 (stereo not shown)",
    "Label value": "Met"
  }
]

Just wondering, is CC50 at 48 h of NS(=O)(=O)c1ccc(N2N=C(c3ccc(O)cc3)CC2c2ccc(F)cc2)cc1 (stereo not shown) below 100 µM?
Met

Just wondering, is CC50 at 48 h of NS(=O)(=O)c1ccc(N2N=C(c3ccc(O)cc3)CC2c2ccc(Cl)cc2)cc1 (stereo not shown) below 100 µM?
Met

---

Protocol text: Cytotoxicity assay (MTT), normal oral cells (mean)
Conditions: human, normal oral cells HGF, HPLF, HPC (mean of the three)
Property measured: CC50 at 48 h (µM)
Form entry: value (µM) — number only.

See these solved cases before continuing.
[
  {
    "Compound": "Cc1ccc(C2CC(c3ccc(O)cc3)=NN2c2ccc(S(N)(=O)=O)cc2)cc1 (centres unmarked) [Compound 2]",
    "Value observed": 97.2
  },
  {
    "Compound": "NS(=O)(=O)c1ccc(N2N=C(c3ccc(O)cc3)CC2c2ccc(Cl)cc2Cl)cc1 (centres unmarked) [Compound 5]",
    "Value observed": 76.2
  }
]

Consider the compound NS(=O)(=O)c1ccc(N2N=C(c3ccc(O)cc3)CC2c2cccs2)cc1 (centres unmarked) [Compound 9] and give its recorded CC50 at 48 h.
122

Consider the compound NS(=O)(=O)c1ccc(N2N=C(c3ccc(O)cc3)CC2c2ccccc2)cc1 (centres unmarked) [Compound 1] and give its recorded CC50 at 48 h.
118
